- TARGET ENTITY: adenosine A2B receptor (Homo sapiens (Human))
- Sequence (P29275 whole entry): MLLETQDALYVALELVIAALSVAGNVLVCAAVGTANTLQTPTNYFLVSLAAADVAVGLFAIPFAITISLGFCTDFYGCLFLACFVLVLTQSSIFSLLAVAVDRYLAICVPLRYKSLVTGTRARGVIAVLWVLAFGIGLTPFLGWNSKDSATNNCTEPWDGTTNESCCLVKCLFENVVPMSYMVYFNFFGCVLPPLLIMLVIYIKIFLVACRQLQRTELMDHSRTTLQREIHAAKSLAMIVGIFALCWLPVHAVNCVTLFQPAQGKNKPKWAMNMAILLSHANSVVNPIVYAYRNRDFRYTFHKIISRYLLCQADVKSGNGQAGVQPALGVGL
- TEST DESCRIPTION: Adenosine receptor activity assay (Table 1), A2B activity
- Type: biochemical
- CONDITION: A2A activity to A2B activity (A2A/A2B)
REPORTED PROPERTY: Ratio
Answer field: number only, no words.

Write down Ratio measured for item Cc1cc2nc(N[C@@H](C)c3ccccn3)nc(C(=O)N3CCC3)c2s1
56.67

For the molecule C[C@H](Nc1nc(C(=O)NCCS(C)(=O)=O)c2sccc2n1)c1ccccn1 , report Ratio.
2.95

Identify the reported Ratio for the following entry. CCNC(=O)c1nc(N[C@@H](C)c2ccccn2)nc2ccsc12
15.70

Please give measured Ratio of the following entry: C[C@H](Nc1nc(C(=O)N2CC[C@@H](N)C2)c2sccc2n1)c1ccccn1
11.16

Please report Ratio for the following molecule: COC1CN(C(=O)c2nc(N[C@@H](C)c3cncc(F)c3)nc3cc(C)sc23)C1
57.63

Tell us which Ratio value is on record for C[C@H](Nc1nc(C(=O)N2CCC(C(=O)OC(C)(C)C)C2)c2sccc2n1)c1ccccn1 (stereo partly shown)
1.96

# return recorded Ratio for input CC1(C)CCN(C(=O)c2nc(NCc3cncnc3)nc3ccsc23)C1
0.57

Complete the entry with Ratio for CNc1cc2nc(N[C@@H](C)c3cccnc3)nc(C(=O)N3CC[C@H](F)C3)c2s1
48.67

Please report Ratio for the following molecule: C[C@H](Nc1nc(C(=O)NC(C)(C)C)c2sccc2n1)c1ccccn1
2.22

Item C[C@H](Nc1nc(C(=O)N(C)CCc2ccc(O)cc2)c2sccc2n1)c1cncc(F)c1 : provide Ratio
6.83

For the molecule C[C@H](Nc1nc(C(=O)NCC(F)(F)F)c2sccc2n1)c1ccccn1 , give its reported Ratio.
11.22

Tell us which Ratio value is on record for C[C@H](Nc1nc(C(=O)NCCO)c2sccc2n1)c1cncc(F)c1
24.38

Respond only with Ratio recorded for C[C@H](Nc1nc(C(=O)N2CCC2)c2sccc2n1)c1cncc(F)c1
49.96

Identify Ratio associated with the molecule C[C@H](Nc1nc(C(=O)N[C@H]2C[C@@H](O)C2)c2sccc2n1)c1cncc(Cl)c1
38.51

Provide only the value of recorded Ratio for CNc1cc2nc(N[C@@H](C)c3cccnc3)nc(C(=O)N3CCCC3)c2s1
53.70

Output measured Ratio for this item: COC[C@H](Nc1nc(C(=O)NC[C@H](C)O)c2sccc2n1)c1cccnc1
3.30

# return recorded Ratio for entry Cc1cc2nc(N[C@@H](C)c3cncc(F)c3)nc(C(=O)NCC3CCOCC3)c2s1
32.01

Please give the documented Ratio of C[C@H](Nc1nc(C(=O)NCCC2CCNC2)c2sccc2n1)c1cncc(F)c1 (stereo partly shown)
100.94

Please give measured Ratio of the following entry: C[C@H](Nc1nc(C(=O)N2CC[C@@H](O)C2)c2sc(C(F)(F)F)cc2n1)c1cccnc1
120.82

# return recorded Ratio for input COC1CN(C(=O)c2nc(N[C@@H](C)c3cccnc3)nc3cc(C)sc23)C1
26.11

Complete the entry with Ratio for COc1ccc(CNC(=O)c2nc(N[C@@H](C)c3cccnc3)nc3ccsc23)cc1OC
4.57

Quickly give me recorded Ratio for Cc1cncc(CNC(=O)c2nc(NCc3cncc(C)c3)nc3ccsc23)c1
1.00

Give the reported Ratio for this molecule. Cc1cc2nc(N[C@@H](C)c3ccccn3)nc(C(=O)NC3CCC3)c2s1
9.52

Return reported Ratio. Input molecule: C[C@H](Nc1nc(C(=O)N2CC(O)C2)c2sccc2n1)c1cncc(F)c1
52.81

Report Ratio for O=C(NCc1ccccc1)c1nc(NCc2ccccc2)nc2ccsc12
0.40

Identify the reported Ratio for the following entry. CC(=O)N[C@@H]1CCN(C(=O)c2nc(N[C@@H](C)c3ccccn3)nc3ccsc23)C1
6.69

Give the reported value of Ratio for this record: C[C@H](Nc1nc(C(=O)NC2COC2)c2sccc2n1)c1ccccn1
5.79

Note Ratio for the molecule shown: Cc1cc2nc(N[C@@H](C)c3cccnc3)nc(C(=O)N3CC[C@H](CO)C3)c2s1
136.91

Specify Ratio for O=C(c1nc(NCc2ccccc2)nc2ccsc12)N1CCCC1 and stop.
1.22

Find the measured Ratio of C[C@H](Nc1nc(C(=O)N2CC[C@@H](O)C2)c2sccc2n1)c1ccccn1 and report it.
12.76

Specify measured Ratio for C[C@H](Nc1nc(C(=O)N2CCC[C@H]2CO)c2sccc2n1)c1cccnc1 .
1.00

Item Cc1cc2nc(N[C@@H](C)c3ccccn3)nc(C(=O)N3CC[C@H](O)C3)c2s1 : provide Ratio
77.76

Report Ratio, nothing else, for this molecule: O=C(c1nc(NCc2cncc(F)c2)nc2ccsc12)N1CC[C@@H](F)C1
66.23

# return recorded Ratio for input C[C@H](Nc1nc(C(=O)N2CC[C@H](O)C2)c2sccc2n1)c1cccnc1
39.41

Measured values drawn from patent US11254686B1 for this set.
